Source of measurements: PubChem BioAssay (NCI)

Measured TGI of individual entries
- Test system: HT29 colon
- EXPERIMENT_SUMMARY: NCI tumour cell line growth inhibition, 48 h

# count of solved cases: 4
>>> result("O=C(O)C1C2C=CC(O2)C1C(=O)NCc1cccnc1 (stereo not given)")
"> 100 µM"
>>> result("Cc1cc(F)c(C(=O)Nc2cccc(-c3nncn3C(C)C)n2)cc1-n1cnc(C2CC2)c1")
"> 100 µM"
>>> result("O=C1C=CC2(CCCCCCC2=O)CC1 (stereo not given)")
"> 100 µM"
>>> result("CCOC(=O)/C(Br)=C1\\OC(=O)c2ccccc2-c2ccccc21")
"> 100 µM"

Here is the next item to consider.
Exam item: Looking for the measured TGI of COc1cccc(N/C(C)=C2/CCOC2=O)c1 , can you help?
Marked response: > 10 µM

###

Catalogue of TGI values
- Tested on: SF-539 CNS
- EXPERIMENT_SUMMARY: NCI tumour cell line growth inhibition, 48 h

Exam item: Query: TGI; subject: CC12NC(=C(C#N)C#N)C(C#N)=C3NC(N)=C(C#N)C(=C31)Oc1ccccc12 (stereo not drawn)
Marked response: > 88.6 µM

Exam item: Input CN(C)CCCNC(=O)N/N=C/c1ccc(O)cc1
Marked response: > 100 µM

Exam item: Please answer likewise for CCN(CC)CC1CCCCN1CC(=O)N1c2cc(Cl)ccc2NC(=O)CC1C (stereo not drawn)
Marked response: > 100 µM

###

- System: HCT-15 colon
- EXPERIMENT_SUMMARY: NCI tumour cell line growth inhibition, 48 h
MEASURE: TGI

# example entries with known answers
>>> result("CCO/C(O)=C(/C(=N)N1CCOCC1)C(=O)Nc1cccc(C(F)(F)F)c1")
"> 100 µM"
>>> result("C/C(=N\\Nc1ccccc1)c1sc(-c2nc(C)c(/C(C)=N/Nc3ccccc3)s2)nc1C")
"> 20.2 µM"
>>> result("CN1C(=O)c2ccccc2C(O)(c2ccccc2)C1(O)c1ccccc1 (stereo not given)")
"> 100 µM"
>>> result("CC(C)C[C@H](CC(=O)O)C(=O)N[C@@H](Cc1c[nH]c2ccccc12)C(=O)N[C@@H](C)c1ccccc1")
"> 25 µM"

Exam item: Would you kindly share the measured TGI for COc1ccc(-n2cc(-c3cc(OC)c(OC)c(OC)c3)nc2SCc2ccc(Cl)cc2)cc1OC ?
Marked response: > 100 µM

###

Listing of recorded TGI by entry.
- Tested on: K-562 leukemia
- EXPERIMENT_SUMMARY: NCI tumour cell line growth inhibition, 48 h

Use the examples below as a reference point.
>>> result("Nc1n[n+]([O-])c2cc([N+](=O)[O-])ccc2[n+]1[O-]")
"11.7 µM"
>>> result("CC12NC(=C(C#N)C#N)C(C#N)=C3NC(N)=C(C#N)C(=C31)Oc1ccccc12 (configuration not stated)")
"> 100 µM"
>>> result("CCO/C(O)=C(/C(=N)N1CCOCC1)C(=O)Nc1cccc(C(F)(F)F)c1")
"> 100 µM"
>>> result("CC(C)OP(=O)(OC(C)C)C(=NCCO)NNc1ccc([N+](=O)[O-])cc1")
"> 100 µM"
>>> result("CCOC(=O)c1c(N2CCCC2)[nH]c(=O)c(C(c2c(O)c(C(=O)OCC)c(N3CCCC3)[nH]c2=O)C(C)C)c1O")
"> 100 µM"

Next item in the queue.
Exam item: Dear colleague, I am looking for the recorded TGI of the following molecule: O=[N+]([O-])c1cc(Br)cc2cc(Cl)cnc12
Marked response: > 100 µM

###

- System: LOX IMVI melanoma
- EXPERIMENT_SUMMARY: NCI tumour cell line growth inhibition, 48 h
Recorded TGI values for a group of molecules are listed next.

Here's what some known entries look like.
>>> result("Cc1sc2c(c1C)C(=O)c1cccn1-2")
"> 100 µM"
>>> result("Nc1n[n+]([O-])c2cc([N+](=O)[O-])ccc2[n+]1[O-]")
"> 100 µM"

Let us move to another entry and its TGI.
Exam item: // returns reported TGI for input CCOC(=O)c1oc2c(OC)ccc3c2c1CCC3
Marked response: > 100 µM

###

- System: CCRF-CEM leukemia
- EXPERIMENT_SUMMARY: NCI tumour cell line growth inhibition, 48 h
MEASURE: TGI

Reference set, count: 5
>>> result("Cc1nnc(C[C@@H]2C=C(c3ccc(Cl)cc3)c3ccccc3-n3c(C)nnc32)o1")
"> 94.1 µM"
>>> result("O=C1Cc2c(-c3ccccc3)cc(-c3ccccc3)nc2-c2ccccc2N1")
"> 100 µM"
>>> result("CN(C)c1ccc(/C=C/C(=O)c2ccc(Nc3nc(Nc4ccc(F)cc4)nc(Nc4ccc(F)cc4)n3)cc2)cc1")
"> 100 µM"
>>> result("CCOC(=O)Oc1cc2ccsc2c2c1c1ccccc1n2C(=O)OCC")
"> 100 µM"
>>> result("COc1ccc(-n2cc(-c3cc(OC)c(OC)c(OC)c3)nc2SCc2ccc(Cl)cc2)cc1OC")
"> 100 µM"

Exam item: Missing value: TGI, CCRF-CEM leukemia, entry CCCNC1=C2C[C@@H](C)C[C@@H](OC)[C@@H](OC(=O)CCCN)[C@H](C)/C=C(\C)[C@@H](OC(N)=O)[C@H](OC)/C=C\C=C(/C)C(=O)NC(=CC1=O)C2=O . Fill in?
Marked response: 6.8 µM

Exam item: Repeat for the following compound: Cc1ccc(C2(O)c3ccccc3C(=O)N(C)C2(O)c2ccc(C)cc2)cc1 (stereo not drawn)
Marked response: 39.3 µM

Exam item: Let us now turn to COc1ccc(C=Nc2ccc(-c3nc4ccccc4s3)cc2)cc1OC
Marked response: 55 µM

Exam item: Quick one: CCOC(=O)/C(=C/CC/C(C)=C/CC/C(C)=C/CCc1ccoc1)CC(=O)N1CCCCC1
Marked response: 22.5 µM

Exam item: Now give it for Cc1cc(F)c(C(=O)Nc2cccc(-c3nncn3C(C)C)n2)cc1-n1cnc(C2CC2)c1 too.
Marked response: > 100 µM

###

Item-by-item account of TGI
- Test system: M14 melanoma
- EXPERIMENT_SUMMARY: NCI tumour cell line growth inhibition, 48 h

>>> result("O=c1oc2cc(O)ccc2c2[nH]c3cc(O)ccc3c12")
"> 100 µM"
>>> result("O=Cc1c2c(cc3c1CC1(C3)Cc3cc4c(c(C=O)c3C1)CCCC4)CCCC2")
"> 31.6 µM"
>>> result("Cn1c(N/N=C/c2ccccc2)nc(-c2ccc3c(c2)OCO3)c(C#N)c1=O")
"> 100 µM"

Exam item: Given C=CCn1c(-c2cc(C(C)(C)C)c(O)c(C(C)(C)C)c2)cs/c1=N\C(P(=O)(O)O)P(=O)(O)O , state its recorded TGI.
Marked response: > 100 µM

Exam item: Further, for Oc1ccc2ccccc2c1CCc1c(O)ccc2ccccc12 ?
Marked response: 29.5 µM

Exam item: Now this one: O=C(Nc1ccc(OS(=O)(=O)c2ccc(F)cc2)cc1)C12CC3CC(CC(C3)C1)C2
Marked response: > 100 µM

Exam item: Queued: COC(=O)[C@H](CNC(=O)/C=C/c1ccc(OC(C)=O)c(OC(C)=O)c1)NC(=O)/C=C/c1ccc(OC(C)=O)c(OC(C)=O)c1
Marked response: > 100 µM

Exam item: CC1(C)OB(c2ccc(N(CCOS(C)(=O)=O)CCOS(C)(=O)=O)cc2)OC1(C)C , same question.
Marked response: 13.7 µM

Exam item: Follow-up item: COC(=O)c1cc(-c2ccc3ccccc3c2)[nH]c(=O)c1C#N
Marked response: > 100 µM

Exam item: And CCOC(=O)Oc1cc2ccsc2c2c1c1ccccc1n2C(=O)OCC ?
Marked response: > 100 µM

Exam item: Now give it for Clc1ccc(-c2cc(-c3ccccc3)nc(N3CCN(CCCNc4ccnc5cc(Cl)ccc45)CC3)n2)cc1 too.
Marked response: 3.53 µM

Exam item: Item: CCCCn1c(-c2ccccc2)cs/c1=N\N=C1C=C(C(C)(C)C)C(=O)C(C(C)(C)C)=C1
Marked response: > 100 µM

Exam item: For CC1=C(C(=O)NNC(=O)Cc2ccccc2)CC(C(=O)NNC(=O)Cc2ccccc2)=C(C)N1 then?
Marked response: > 100 µM

Exam item: What do you get for CC(C)C[C@H](CC(=O)O)C(=O)N[C@@H](Cc1c[nH]c2ccccc12)C(=O)N[C@@H](C)c1ccccc1 ?
Marked response: > 25 µM

Exam item: Param item: O=C(NCCCCCCCCCCCCNC(=O)c1cnc2ccccc2n1)c1cnc2ccccc2n1
Marked response: > 100 µM

Exam item: Next molecule: Cc1ccc(S(=O)(=O)N(CC(O)COc2ccccc2)c2c(F)c(F)cc(F)c2F)cc1 (configuration not stated)
Marked response: 61.5 µM

Exam item: // repeat for O=C(O)c1cc(N=Nc2ccc([N+](=O)[O-])cc2)ccc1O and report
Marked response: > 100 µM
